// data source = ChEMBL document CHEMBL4138123

Test system: NCI/ADR-RES
ASSAY COMMENT: Cytotoxicity against human NCI/ADR-RES cells assessed as growth inhibition after 48 hrs by sulforhodamine B assay
Type: functional
Recorded GI50 values for a group of molecules are listed next.
QUANTITY: GI50 (µM)

[[record]]
given_smiles = "COc1ccc(-c2cc(/C=C/C(=O)c3ccc4c(c3)OCO4)[nH]n2)cc1OC"
quantity = "GI50"
unit = "µM"
measured = 3.43

[[record]]
given_smiles = "COc1ccc(C(=O)/C=C/c2cc(-c3ccc(OC)c(OC)c3)n[nH]2)cc1OC"
quantity = "GI50"
unit = "µM"
measured = 3.43

[[record]]
given_smiles = "COc1cc(C(=O)/C=C/c2cc(-c3ccc4c(c3)OCO4)n[nH]2)cc(OC)c1OC"
quantity = "GI50"
unit = "µM"
measured = 2.99

[[record]]
given_smiles = "COc1ccc(-c2cc(/C=C/C(=O)c3ccc(OC)c(OC)c3)[nH]n2)cc1"
quantity = "GI50"
unit = "µM"
measured = 3.44


---

System: UO-31
ASSAY COMMENT: Cytotoxicity against human UO31 cells assessed as cell growth at 10 uM after 48 hrs by sulforhodamine B assay relative to control
Type: functional
CONDITION DETAILS: UO-31, 48 h, read-out: Activity
QUANTITY: growth at 10 µM (%)

[[record]]
given_smiles = "COc1ccc(-c2cc(/C=C/C(=O)c3cc(OC)c(OC)c(OC)c3)[nH]n2)cc1OC"
measured = -95

[[record]]
given_smiles = "COc1cc(-c2cc(/C=C/C(=O)c3ccc(N)cc3)[nH]n2)cc(OC)c1OC"
measured = -84

[[record]]
given_smiles = "COc1cc(-c2cc(/C=C/C(=O)c3ccc4c(c3)OCO4)[nH]n2)cc(OC)c1OC"
measured = -29

[[record]]
given_smiles = "COc1cc(-c2cc(/C=C/C(=O)c3ccc(Cl)c(Cl)c3)[nH]n2)cc(OC)c1OC"
measured = 40

[[record]]
given_smiles = "COc1ccc(-c2cc(/C=C/C(=O)c3ccc(OC)c(OC)c3)[nH]n2)cc1"
measured = -96

[[record]]
given_smiles = "COc1ccc(C(=O)/C=C/c2cc(-c3cc(OC)c(OC)c(OC)c3)n[nH]2)cc1OC"
measured = -97

[[record]]
given_smiles = "COc1ccc(C(=O)/C=C/c2cc(-c3cc(OC)c(OC)c(OC)c3)n[nH]2)cc1"
measured = -93


---

# LC50 listing for each entry below
Test system: SN12C
ASSAY COMMENT: Cytotoxicity against human SN12C cells assessed as growth inhibition after 48 hrs by sulforhodamine B assay
Format: functional
QUANTITY: LC50 (µM)

[[record]]
given_smiles = "COc1ccc(-c2cc(/C=C/C(=O)c3ccc(N)cc3)[nH]n2)cc1OC"
measured = 41.3

[[record]]
given_smiles = "COc1ccc(-c2cc(/C=C/C(=O)c3ccc(N)cc3)[nH]n2)cc1"
measured = 34.9

[[record]]
given_smiles = "COc1ccc(-c2cc(/C=C/C(=O)c3ccc(OC)c(OC)c3)[nH]n2)cc1"
measured = 8.73

[[record]]
given_smiles = "COc1cc(C(=O)/C=C/c2cc(-c3ccc4c(c3)OCO4)n[nH]2)cc(OC)c1OC"
measured = 23.4

[[record]]
given_smiles = "COc1ccc(-c2cc(/C=C/C(=O)c3cc(OC)c(OC)c(OC)c3)[nH]n2)cc1OC"
measured = 8.26


---

System: CCRF-CEM
ASSAY COMMENT: Cytotoxicity against human CCRF-CEM cells assessed as cell growth at 100 uM after 48 hrs by sulforhodamine B assay relative to control
Format: functional
CONDITION DETAILS: read-out: Activity
QUANTITY: growth at 100 µM (%)

[[record]]
given_smiles = "COc1ccc(C(=O)/C=C/c2cc(-c3cc(OC)c(OC)c(OC)c3)n[nH]2)cc1OC"
unit = "%"
measured = -15

[[record]]
given_smiles = "COc1ccc(-c2cc(/C=C/C(=O)c3ccc(N)cc3)[nH]n2)cc1"
unit = "%"
measured = -68

[[record]]
given_smiles = "COc1ccc(-c2cc(/C=C/C(=O)c3ccc(OC)c(OC)c3)[nH]n2)cc1"
unit = "%"
measured = -47

[[record]]
given_smiles = "COc1cc(-c2cc(/C=C/C(=O)c3ccc4c(c3)OCO4)[nH]n2)cc(OC)c1OC"
unit = "%"
measured = -13

[[record]]
given_smiles = "COc1cc(C(=O)/C=C/c2cc(-c3ccc4c(c3)OCO4)n[nH]2)cc(OC)c1OC"
unit = "%"
measured = -20

[[record]]
given_smiles = "COc1ccc(-c2cc(/C=C/C(=O)c3cc(OC)c(OC)c(OC)c3)[nH]n2)cc1OC"
unit = "%"
measured = -13


---

Known growth at 100 µM of a selection of molecules
Tested on: TK-10
ASSAY COMMENT: Cytotoxicity against human TK10 cells assessed as cell growth at 100 uM after 48 hrs by sulforhodamine B assay relative to control
Format: functional
CONDITION DETAILS: TK-10, 48 h, read-out: Activity
QUANTITY: growth at 100 µM (%)

[[record]]
given_smiles = "COc1cc2c(cc1OC)C(=O)/C(=C/c1cc(-c3ccc4c(c3)OCO4)n[nH]1)C2"
measured = -95

[[record]]
given_smiles = "COc1cc(-c2cc(/C=C/C(=O)c3ccc4c(c3)OCO4)[nH]n2)cc(OC)c1OC"
measured = -47

[[record]]
given_smiles = "COc1ccc(C(=O)/C=C/c2cc(-c3cc(OC)c(OC)c(OC)c3)n[nH]2)cc1"
measured = -20

[[record]]
given_smiles = "COc1ccc(-c2cc(/C=C/C(=O)c3ccc(N)cc3)[nH]n2)cc1"
measured = -91


---

Tested on: HCT-116
ASSAY COMMENT: Cytotoxicity against human HCT116 cells assessed as cell growth at 1 uM after 48 hrs by sulforhodamine B assay relative to control
Assay type: functional
CONDITION DETAILS: HCT-116, 48 h, read-out: Activity
Parameter threshold = 70%. Response is Criterion met when growth at 1 µM meets or exceeds it, else Criterion not met.

[[record]]
given_smiles = "COc1ccc(-c2cc(/C=C/C(=O)c3ccc(N)cc3)[nH]n2)cc1"
class_assignment = "Criterion not met"

[[record]]
given_smiles = "COc1ccc(C(=O)/C=C/c2cc(-c3ccc4c(c3)OCO4)n[nH]2)cc1OC"
class_assignment = "Criterion met"

[[record]]
given_smiles = "COc1cc(C(=O)/C=C/c2cc(-c3ccc4c(c3)OCO4)n[nH]2)cc(OC)c1OC"
class_assignment = "Criterion met"

[[record]]
given_smiles = "COc1ccc(C(=O)/C=C/c2cc(-c3ccc(OC)c(OC)c3)n[nH]2)cc1OC"
class_assignment = "Criterion not met"

[[record]]
given_smiles = "COc1ccc(C(=O)/C=C/c2cc(-c3cc(OC)c(OC)c(OC)c3)n[nH]2)cc1OC"
class_assignment = "Criterion not met"


---

Tested on: U-251
ASSAY COMMENT: Cytotoxicity against human U251 cells assessed as growth inhibition after 48 hrs by sulforhodamine B assay
Assay type: functional
CONDITION DETAILS: U-251, 48 h
QUANTITY: LC50 (µM)

[[record]]
given_smiles = "COc1cc(-c2cc(/C=C/C(=O)c3ccc(F)c(F)c3)[nH]n2)cc(OC)c1OC"
result_comparator = ">"
measured = 100

[[record]]
given_smiles = "COc1ccc(-c2cc(/C=C/C(=O)c3ccc(OC)c(OC)c3)[nH]n2)cc1"
result_comparator = "="
measured = 4.97

[[record]]
given_smiles = "COc1cc2c(cc1OC)C(=O)/C(=C/c1cc(-c3ccc4c(c3)OCO4)n[nH]1)C2"
result_comparator = "="
measured = 4.9

[[record]]
given_smiles = "COc1ccc(C(=O)/C=C/c2cc(-c3cc(OC)c(OC)c(OC)c3)n[nH]2)cc1OC"
result_comparator = "="
measured = 4.99

[[record]]
given_smiles = "COc1ccc(-c2cc(/C=C/C(=O)c3ccc(N)cc3)[nH]n2)cc1OC"
result_comparator = "="
measured = 7.69


---

Test system: OVCAR-5
ASSAY COMMENT: Cytotoxicity against human OVCAR5 cells assessed as cell growth at 0.1 uM after 48 hrs by sulforhodamine B assay relative to control
Format: functional
CONDITION DETAILS: OVCAR-5, 48 h, read-out: Activity
QUANTITY: growth at 0.1 µM (%)

[[record]]
given_smiles = "COc1ccc(-c2cc(/C=C/C(=O)c3cc(OC)c(OC)c(OC)c3)[nH]n2)cc1OC"
study_target = "OVCAR-5"
quantity = "growth at 0.1 µM"
measured = 92

[[record]]
given_smiles = "COc1cc(C(=O)/C=C/c2cc(-c3cc(OC)c(OC)c(OC)c3)n[nH]2)cc(OC)c1OC"
study_target = "OVCAR-5"
quantity = "growth at 0.1 µM"
measured = 101

[[record]]
given_smiles = "COc1cc(-c2cc(/C=C/C(=O)c3ccc(Cl)c(Cl)c3)[nH]n2)cc(OC)c1OC"
study_target = "OVCAR-5"
quantity = "growth at 0.1 µM"
measured = 99

[[record]]
given_smiles = "COc1cc(-c2cc(/C=C/C(=O)c3ccc(N)cc3)[nH]n2)cc(OC)c1OC"
study_target = "OVCAR-5"
quantity = "growth at 0.1 µM"
measured = 103

